Every entry's value here was drawn from patent US20210024639A1.

Molecular target: T1, human MET extracellular domain (ECD) (human, UniProt P08581 25-932)
T1 construct: range 1-932; recombinant ECD; also called hMET; human MET ECD
T1 sequence (P08581 25-932 limits assumed, form in doubt): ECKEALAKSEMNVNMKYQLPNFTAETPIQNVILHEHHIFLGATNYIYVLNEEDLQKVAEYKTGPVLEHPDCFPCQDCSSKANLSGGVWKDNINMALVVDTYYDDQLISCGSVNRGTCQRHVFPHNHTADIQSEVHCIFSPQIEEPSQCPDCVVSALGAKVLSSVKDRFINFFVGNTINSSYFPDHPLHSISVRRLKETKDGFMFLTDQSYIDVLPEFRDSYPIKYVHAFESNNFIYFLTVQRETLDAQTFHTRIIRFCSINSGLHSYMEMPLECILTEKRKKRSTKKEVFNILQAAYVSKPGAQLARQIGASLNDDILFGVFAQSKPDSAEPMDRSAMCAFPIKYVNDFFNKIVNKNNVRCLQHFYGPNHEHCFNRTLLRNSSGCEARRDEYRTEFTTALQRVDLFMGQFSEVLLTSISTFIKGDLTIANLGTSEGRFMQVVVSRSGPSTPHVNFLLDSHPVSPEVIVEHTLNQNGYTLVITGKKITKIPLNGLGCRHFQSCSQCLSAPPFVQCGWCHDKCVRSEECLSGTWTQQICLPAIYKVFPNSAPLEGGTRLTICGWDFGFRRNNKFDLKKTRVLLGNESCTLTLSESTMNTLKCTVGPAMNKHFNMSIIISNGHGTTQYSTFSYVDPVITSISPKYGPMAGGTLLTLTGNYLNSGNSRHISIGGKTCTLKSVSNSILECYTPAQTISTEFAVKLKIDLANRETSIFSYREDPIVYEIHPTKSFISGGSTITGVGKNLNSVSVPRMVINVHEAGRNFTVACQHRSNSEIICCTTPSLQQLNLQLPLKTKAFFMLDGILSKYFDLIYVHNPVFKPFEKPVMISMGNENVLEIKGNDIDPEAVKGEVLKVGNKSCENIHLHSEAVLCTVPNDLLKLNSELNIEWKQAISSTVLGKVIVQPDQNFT
Assay: ELISA, periplasmic Fab on MET ECD
Can you tell me ELISA OD450 for the items I'm about to list?
A number alone suffices; assume AU.

Incoming: Identify the reported ELISA OD450 for the following entry. Fab 71C3 (Fab, V domains shown, llama Fab (VH-CH1, lambda VL-CL) with MYC flag, crude periplasmic extract) VH: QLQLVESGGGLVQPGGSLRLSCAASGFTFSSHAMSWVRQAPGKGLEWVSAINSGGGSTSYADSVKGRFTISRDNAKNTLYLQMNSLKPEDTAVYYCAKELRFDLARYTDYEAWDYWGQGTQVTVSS VL: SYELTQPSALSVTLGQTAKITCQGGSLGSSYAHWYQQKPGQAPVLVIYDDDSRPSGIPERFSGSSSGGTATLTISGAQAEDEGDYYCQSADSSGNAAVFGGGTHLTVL
Outgoing: 1.65

Incoming: Given the binder Fab 71D6 (Fab, V domains shown, llama Fab (VH-CH1, lambda VL-CL) with MYC flag, crude periplasmic extract) VH: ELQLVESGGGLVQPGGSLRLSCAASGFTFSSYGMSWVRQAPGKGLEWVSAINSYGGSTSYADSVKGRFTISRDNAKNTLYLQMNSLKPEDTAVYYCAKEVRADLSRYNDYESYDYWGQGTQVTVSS VL: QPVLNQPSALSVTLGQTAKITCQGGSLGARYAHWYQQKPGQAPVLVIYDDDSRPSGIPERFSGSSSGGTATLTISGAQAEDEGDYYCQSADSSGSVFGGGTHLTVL , write its reported ELISA OD450.
Outgoing: 3.26
